system: DU-145 prostate; assay: NCI-60 one-dose screen, 48 h (100 = growth as untreated, 0 = no growth, -100 = all killed); conditions: 10 µM unless noted
Compounds without any hit were thinned out: in the full panel of roughly 83,000, 20% have a hit.
Rule: measured growth below 70% gets Criterion met; anything equal to or greater than 70% gets Criterion not met.

For this compound, is growth lower than 70%? CC1(n2nnnc2N2CCCN(c3ncccc3N)CC2)CCC1
Criterion not met

Same thing, different compound: COc1ccc(C2C(C#N)=C(N)Oc3c2sc2c(F)cccc32)cc1 (centres undefined)
Criterion met

Same thing, different compound: O=C(Nc1ccc(/C=C2\SC(=O)N(Cc3ccc(OC(F)(F)F)cc3)C2=O)cc1)c1ccc(Cl)c([N+](=O)[O-])c1
Criterion not met

Same thing, different compound: CC(C)(C)c1ccc(OCCCCCCCN2CCNCC2)cc1
Criterion met

Same thing, different compound: O=C1OC(c2ccc(Cl)c(Cl)c2)=C/C1=C/c1cccc([N+](=O)[O-])c1
Criterion not met

Same thing, different compound: COc1cc(/C=N/NC(=S)NNC(=S)NC2CCCCC2)cc(OC)c1OC
Criterion not met

Same thing, different compound: CC(=O)c1c(C)[nH]c(-c2nc3ccc(N4CCN(C)CC4)cc3[nH]2)c1-c1ccc2c(c1)OCCO2
Criterion not met

Same thing, different compound: COc1cccc(-c2nn(-c3ccccc3)cc2-c2ccnc(NCCCO)c2)c1
Criterion met

Same thing, different compound: COc1cc2[nH]c(C(=O)c3cc(OC)c(OC)c(OC)c3)c(N)c2cc1C#CC1CC1
Criterion met

Same thing, different compound: CCOC(=O)c1ccc2c(c1)[n+](=O)c(C(=O)C1CCCS1)c(C(F)(F)F)n2[O-] (centres undefined)
Criterion met

Same thing, different compound: Cc1ccc(NC2CC(=O)N(c3c(C)cc(C)cc3C)C2=O)c(C)c1 (centres undefined)
Criterion not met

Same thing, different compound: CC(=O)OCCCCCCn1c2ccccc2c2c3c(c4c5ccccc5n(C)c4c21)C(=O)N(O)C3=O
Criterion not met

Same thing, different compound: COc1cccc(-c2nn(-c3ccccc3)cc2-c2ccnc(NCCNS(=O)(=O)c3ccc(Cl)cc3)c2)c1
Criterion met

Same thing, different compound: COc1ccc2c(c1)c(-c1nc(-c3c[nH]c4ncccc34)cs1)cn2CCN
Criterion met

Same thing, different compound: O=C1CCN2C(=O)Nc3ccccc3C2C1 (centres undefined)
Criterion not met

Same thing, different compound: CC1(C)CC[C@]2(C(=O)NCCNCCN)CC[C@]3(C)C(=CC[C@@H]4[C@@]5(C)CCC(=O)C(C)(C)[C@@H]5CC[C@]43C)[C@@H]2C1
Criterion met

Same thing, different compound: COc1cccc(-c2nn(-c3ccccc3)cc2-c2ccnc(NCCCNS(=O)(=O)c3ccccc3)c2)c1
Criterion met
